The origin of these recorded values is paper PMC7352922.

molecular target: horse serum butyrylcholinesterase (Equus caballus); construct: horse serum butyrylcholinesterase (EC 3.1.1.8, Sigma, St. Louis, MO, USA); experiment: biochemical; conditions: BChE; for assumed competitive inhibition, substrate concentration = 1 mM; read-out: Ki app
Sequence (P81908 whole entry): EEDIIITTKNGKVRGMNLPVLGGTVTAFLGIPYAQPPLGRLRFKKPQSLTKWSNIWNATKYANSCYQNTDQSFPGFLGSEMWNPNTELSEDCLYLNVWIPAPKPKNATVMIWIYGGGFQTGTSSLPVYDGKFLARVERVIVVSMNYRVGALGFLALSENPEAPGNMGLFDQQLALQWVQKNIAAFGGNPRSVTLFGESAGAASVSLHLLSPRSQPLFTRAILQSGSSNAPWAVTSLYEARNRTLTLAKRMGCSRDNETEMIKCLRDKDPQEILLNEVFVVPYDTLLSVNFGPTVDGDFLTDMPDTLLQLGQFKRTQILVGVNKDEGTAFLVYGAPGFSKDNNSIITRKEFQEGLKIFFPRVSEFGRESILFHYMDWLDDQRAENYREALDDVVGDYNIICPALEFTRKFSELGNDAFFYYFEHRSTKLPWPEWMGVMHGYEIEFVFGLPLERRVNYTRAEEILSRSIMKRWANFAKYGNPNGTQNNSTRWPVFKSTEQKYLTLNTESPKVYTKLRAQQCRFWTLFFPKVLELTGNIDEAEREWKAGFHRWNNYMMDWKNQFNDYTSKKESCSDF
metric_name: Ki (µM)
Respond numerically; units are µM and should not be typed.

Use the examples below as a reference point.
INSERT INTO assay_data (compound, readout_number) VALUES
  ('CC(=O)O[C@@H]1CCC(C)(C)c2ccc3c(c21)C(=O)C(=O)C1=C3OC[C@@H]1C [Compound 1, (1R,15R)-1-acetoxycryptotanshinone]', 1.34),
  ('C[C@H]1COC2=C1C(=O)C(=O)c1cc3c(cc12)C(C)(C)CCC3=O', 30),
  ('Cc1cc2c(cc(O)c1=O)C1(CO)CCCC(C)(C)C1CC2 (stereo not shown)', 0.47);

Now look at this entry.
For record "CC(=O)O[C@@H]1CCC(C)(C)c2ccc3c(c21)C(=O)C(=O)c1c(C)coc1-3" the listed Ki is 4.59
